- target-desc: human PKR1 receptors (Homo sapiens (Human), UniProt Q8TCW9)
- Sequence (Q8TCW9 whole entry): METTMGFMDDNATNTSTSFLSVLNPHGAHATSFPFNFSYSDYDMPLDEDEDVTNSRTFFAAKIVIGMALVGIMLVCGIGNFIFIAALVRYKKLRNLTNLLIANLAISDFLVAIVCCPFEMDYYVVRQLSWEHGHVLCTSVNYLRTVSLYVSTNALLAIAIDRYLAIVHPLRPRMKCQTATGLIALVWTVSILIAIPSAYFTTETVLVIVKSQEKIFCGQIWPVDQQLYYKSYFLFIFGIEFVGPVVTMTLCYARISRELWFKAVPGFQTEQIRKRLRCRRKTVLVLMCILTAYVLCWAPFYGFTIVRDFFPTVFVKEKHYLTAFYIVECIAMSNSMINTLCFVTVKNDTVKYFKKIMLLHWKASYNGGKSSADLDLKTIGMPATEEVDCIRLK
- run-description: PKR1 antagonist calcium mobilisation assay (FLIPR), block of PK1-mediated intracellular calcium release
- experimental-setup: RBL2H3 cells expressing human PKR1; stimulation with PK1 at EC80; calcium fluorescence
pIC50: −log10 of the molar value.
Label TRUE when pIC50 is at or above 7; otherwise label FALSE.

1) Cc1nn(C)c(C)c1S(=O)(=O)N1CCC(=C(C#N)c2c(F)cccc2F)CC1 [Example 8] ... FALSE
2) Cc1n[nH]c(C)c1S(=O)(=O)N1CCC(=C(F)c2ccc(Cl)c(F)c2)CC1 [Example 20] ... FALSE
3) Cc1n[nH]c(C)c1S(=O)(=O)N1CCC(=C(C#N)c2ccc(Cl)cc2F)CC1 [Example 5] ... FALSE
4) Cc1n[nH]c(C)c1S(=O)(=O)N1CCC(=C(F)c2ccc(Cl)cc2F)CC1 [Example 21] ... FALSE
5) Cc1n[nH]c(C)c1S(=O)(=O)N1CCC(=C(F)c2cnc3ccccc3c2)CC1 [Example 23] ... TRUE
6) Cc1n[nH]c(C)c1S(=O)(=O)N1CCC(=C(C#N)c2ccc(Cl)cc2)CC1 [Example 3] ... TRUE

###

As shown below, each of these compounds has a reported IC50 value.
- target-desc: human PKR1 receptors (Homo sapiens (Human), UniProt Q8TCW9)
- run-description: PKR1 antagonist calcium mobilisation assay (FLIPR), block of PK1-mediated intracellular calcium release
- experimental-setup: RBL2H3 cells expressing human PKR1; stimulation with PK1 at EC80; calcium fluorescence
measurement-name: IC50 (nM)

1. Cc1n[nH]c(C)c1S(=O)(=O)N1CCC(=Cc2ccc(Cl)cc2F)CC1 ... 600
2. Cc1nn(C)c(C)c1S(=O)(=O)N1CCC(=Cc2ccc(Cl)cc2F)CC1 ... 550
3. Cc1n[nH]c(C)c1S(=O)(=O)N1CCC(=C(F)c2ccc(F)c(Cl)c2)CC1 ... 1880
4. Cc1n[nH]c(C)c1S(=O)(=O)N1CCC(=C(F)c2ccc(Cl)cc2)CC1 ... 160
5. Cc1n[nH]c(C)c1S(=O)(=O)N1CCC(=C(C#N)c2ccc(OC(F)(F)F)cc2)CC1 ... 150
6. Cc1n[nH]c(C)c1S(=O)(=O)N1CCC(=Cc2ccc(Cl)cc2)CC1 ... 760
7. CC(=C1CCN(S(=O)(=O)c2c(C)n[nH]c2C)CC1)c1ccc(Cl)cc1 ... 760
8. Cc1n[nH]c(C)c1S(=O)(=O)N1CCC(=C(F)c2ccc(Cl)cc2Cl)CC1 ... 260

###

- target-desc: human PKR1 receptors (Homo sapiens (Human), UniProt Q8TCW9)
- run-description: PKR1 antagonist calcium mobilisation assay (FLIPR), block of PK1-mediated intracellular calcium release
- experimental-setup: RBL2H3 cells expressing human PKR1; stimulation with PK1 at EC80; calcium fluorescence
- Protocol: Prokineticin receptor 1 (PKR1) antagonists may be functionally assessed by measurement of change in intracellular calcium levels induced by Gq mediated increase in inositol triphosphate (IP3) levels. The ability of a compound to block the intracellular release of calcium mediated by PK1 in RBL2H3 cells expressing human PKR1 receptors is determined as a measure of the compound's antagonist activity in vitro. […]
pIC50: −log10 of the molar value.
measurement-name: pIC50

1) Cc1n[nH]c(C)c1S(=O)(=O)N1CCC(=C(C#N)c2c(F)cccc2F)CC1 [Example 4] ... 5.43
2) Cc1n[nH]c(C)c1S(=O)(=O)N1CC/C(=C(\C#N)c2ccc(Cl)cc2)C(C)C1 (centres unmarked) [Example 10] ... 6.33
3) CCc1n[nH]c(CC)c1S(=O)(=O)N1CCC(=C(C#N)c2ccc(Cl)cc2)CC1 [Example 6] ... 7.30
4) Cc1[nH]nc(C2CC2)c1S(=O)(=O)N1CCC(Cc2ccc(Cl)c(F)c2)CC1 [Example 1] ... 5.86
5) Cc1c(S(=O)(=O)N2CCC(=C(C#N)c3ccc(Cl)cc3)CC2)c(C(F)(F)F)nn1C [Example 7] ... 6.68
6) Cc1nn(C)c(C)c1S(=O)(=O)N1CCC(=C(C#N)c2ccc(Cl)cc2)CC1 [Example 15] ... 7.40
7) Cc1n[nH]c(C)c1S(=O)(=O)N1CCC(=C(F)c2ccc(Cl)c(Cl)c2)CC1 [Example 19] ... 6.28
8) COC(=O)C(=C1CCN(S(=O)(=O)c2c(C)n[nH]c2C)CC1)c1ccc(Cl)cc1 [Example 2] ... 5.51
